# key: entry, value: viability, T/C
- Tested on: 817829-284-R-J1-PDC complex spheroid viability;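 note: spheroids exposed to compounds for 7 days; 100% = DMSO vehicle-treated spheroids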
- Experiment: Anticancer human tumor 817829-284-R-J1-PDC patient-derived colon adenocarcinoma cell line growth inhibition [POLQ]
- Measurement Context: second compound 0.316 µM; first compound 0.0316 µM; stronger effect = lower value
Just the number in %, nothing appended.

Field: example entries. Status: answers known.
INSERT INTO results (compound, study_system, units_of_measure, recorded_measurement) VALUES
  ('C=CC(=O)N1CCN(c2nc(=O)n(-c3c(C)ccnc3C(C)C)c3nc(-c4c(O)cccc4F)c(F)cc23)C(C)C1 (stereo not given) + COC1C(OC(N)=O)C(O)C(Oc2ccc3c(O)c(NC(=O)c4ccc(O)c(CC=C(C)C)c4)c(=O)oc3c2C)OC1(C)C', '817829-284-R-J1-PDC complex spheroid viability', '%', 115),
  ('CC1COCCN1c1cc(-c2ccnn2C)c2ccnc(-c3ccn[nH]3)c2n1 (stereo not given) + COC1C(OC(N)=O)C(O)C(Oc2ccc3c(O)c(NC(=O)c4ccc(O)c(CC=C(C)C)c4)c(=O)oc3c2C)OC1(C)C', '817829-284-R-J1-PDC complex spheroid viability', '%', 38.2),
  ('Nc1ccn(C2OC(CO)C(O)C2(F)F)c(=O)n1 (stereo not given) + COC1C(OC(N)=O)C(O)C(Oc2ccc3c(O)c(NC(=O)c4ccc(O)c(CC=C(C)C)c4)c(=O)oc3c2C)OC1(C)C', '817829-284-R-J1-PDC complex spheroid viability', '%', 5.1),
  ('CNCc1ccc(-c2[nH]c3cc(F)cc4c3c2CCNC4=O)cc1 + Nc1ccc(C#CCN(C(=O)Cc2ncc(C(F)(F)F)cc2C(F)(F)F)c2ccc(F)cc2)nn1', '817829-284-R-J1-PDC complex spheroid viability', '%', 80.6),
  ('CCCS(=O)(=O)Nc1ccc(F)c(C(=O)c2c[nH]c3ncc(-c4ccc(Cl)cc4)cc23)c1F + Cc1cccc(N(C)C(=O)C2C(O)CCN2c2nc(C)cc(C(F)(F)F)c2C#N)c1', '817829-284-R-J1-PDC complex spheroid viability', '%', 94.9);

stdin: Data request, read-out viability, T/C, for O=C(c1cc(Cc2n[nH]c(=O)c3ccccc23)ccc1F)N1CCN(C(=O)C2CC2)CC1 + COC1C(OC(N)=O)C(O)C(Oc2ccc3c(O)c(NC(=O)c4ccc(O)c(CC=C(C)C)c4)c(=O)oc3c2C)OC1(C)C
stdout: 105

stdin: Data request, read-out viability, T/C, for C#Cc1c(F)ccc2cc(O)cc(-c3ncc4c(N5CC6CCC(C5)N6)nc(OCC56CCCN5CC(F)C6)nc4c3F)c12 (stereo not given) + COC1C(OC(N)=O)C(O)C(Oc2ccc3c(O)c(NC(=O)c4ccc(O)c(CC=C(C)C)c4)c(=O)oc3c2C)OC1(C)C
stdout: 88.1

stdin: Data request, read-out viability, T/C, for CC(C)n1c(=O)n(C)c2cnc3cc(F)c(-c4ccc(OCCCN5CCCCC5)nc4)cc3c21 + Cc1cccc(N(C)C(=O)C2C(O)CCN2c2nc(C)cc(C(F)(F)F)c2C#N)c1
stdout: 87.3

stdin: Data request, read-out viability, T/C, for CC[C@@]1(O)C(=O)OCc2c1cc1n(c2=O)Cc2cc3c(CN(C)C)c(O)ccc3nc2-1 + COC1C(OC(N)=O)C(O)C(Oc2ccc3c(O)c(NC(=O)c4ccc(O)c(CC=C(C)C)c4)c(=O)oc3c2C)OC1(C)C
stdout: 20.1

stdin: Data request, read-out viability, T/C, for CNCc1ccc(-c2[nH]c3cc(F)cc4c3c2CCNC4=O)cc1 + COC1C(OC(N)=O)C(O)C(Oc2ccc3c(O)c(NC(=O)c4ccc(O)c(CC=C(C)C)c4)c(=O)oc3c2C)OC1(C)C
stdout: 99.1

Cited source: PubChem BioAssay AID1963839
